test-system: Potassium channel subfamily K member 9 (Homo sapiens)
protocol-description: blockers of human TASK-3 (KCNK9) channel – HEK293 cells, thallium flux, primary screen (AID 488922)
measurement-conditions: HEK293 KCNK9, FluxOR thallium flux fluorescence, at 10 µM
In all, about 310,000 compounds went through this assay and about 3,800 (1.2%) were called active.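 Rule for the calls: active = ratio B-score over 3 SD below the library mean, with starting fluorescence within 5 SD of its mean; inactive = the rest, inconclusive results apart.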 The sample as a whole holds a higher share of actives than the screen did.
Outcome codes: active, inactive

molecule: CC1CCCN(CCCNC(=O)CN2C(=O)COc3ccc(S(=O)(=O)N4CCOCC4)cc32)C1 (stereo unspecified)
class-name: inactive
//
molecule: CCCCn1c(=O)c(C(C)=O)c(O)c2ccccc21
class-name: inactive
//
molecule: CC(C)(C)c1ccc(CN2C(=O)c3ccccc3S2(=O)=O)cc1
class-name: inactive
//
molecule: O=C1c2ccccc2S(=O)(=O)N1CC(O)Cn1c2ccccc2c2ccccc21 (stereo unspecified)
class-name: active
//
molecule: OC(c1ccc(Cl)cc1)C(CN1CCOCC1)c1ccccc1 (stereo unspecified)
class-name: inactive
//
molecule: COc1ccc2[nH]c(=O)c(C3c4cc(OC)c(OC)cc4CCN3C(=O)c3ccco3)cc2c1 (stereo unspecified)
class-name: inactive
//
molecule: O=C(COC(=O)c1ccccc1NC(=O)c1ccco1)Nc1ccc2c(c1)OC(F)(F)O2
class-name: active
//
molecule: CCOC(=O)c1nnn2c3ccccc3c(=O)n(C)c12
class-name: inactive
//
molecule: COc1ccc(-c2csc(-c3cccs3)n2)cc1OC
class-name: inactive
//
molecule: CC(=O)Nc1ccc(OCCC[n+]2cccc(C(=O)[O-])c2)cc1
class-name: inactive
//
molecule: O=C(COC(=O)c1ccc[nH]c1=O)Nc1ccc2c(c1)OC(F)(F)O2
class-name: inactive

###

test-system: Potassium channel subfamily K member 9 (Homo sapiens) (UniProt Q9NPC2)
Sequence (Q9NPC2 whole entry, looked up): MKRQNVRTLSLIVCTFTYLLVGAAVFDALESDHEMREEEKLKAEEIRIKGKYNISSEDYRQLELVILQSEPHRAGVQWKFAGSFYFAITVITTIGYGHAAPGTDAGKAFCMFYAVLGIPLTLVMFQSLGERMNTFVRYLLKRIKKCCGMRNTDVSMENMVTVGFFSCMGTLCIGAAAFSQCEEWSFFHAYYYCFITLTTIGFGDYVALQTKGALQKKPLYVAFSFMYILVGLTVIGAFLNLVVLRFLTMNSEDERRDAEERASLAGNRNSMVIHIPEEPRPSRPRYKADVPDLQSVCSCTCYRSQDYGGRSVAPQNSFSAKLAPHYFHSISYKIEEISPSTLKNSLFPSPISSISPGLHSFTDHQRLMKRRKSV
protocol-description: blockers of human TASK-3 (KCNK9) channel – HEK293 cells, thallium flux, primary screen (AID 488922)
measurement-conditions: HEK293 KCNK9, FluxOR thallium flux fluorescence, at 10 µM
Out of some 310,000 compounds screened, about 3,800 (1.2%) were called active.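 The calls were made as follows: active = ratio B-score over 3 SD below the library mean, with starting fluorescence within 5 SD of its mean; inactive = the rest, inconclusive results apart.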 The full list was thinned out, with actives kept by preference.
Outcome codes: y = active, n = inactive

compound: CCN(CC(=O)NCC(=O)Nc1cccc(C)c1C)Cc1ccccc1
test-system: Potassium channel subfamily K member 9 (Homo sapiens) (UniProt Q9NPC2)
class-name: n

compound: CCOc1ccc(C2c3[nH]c4ccccc4c3CCN2Cc2cccn2-c2ncccn2)cc1 (stereo not drawn)
test-system: Potassium channel subfamily K member 9 (Homo sapiens) (UniProt Q9NPC2)
class-name: y

compound: Cc1cc(Cl)ccc1OCc1nc(-c2ccncc2)no1
test-system: Potassium channel subfamily K member 9 (Homo sapiens) (UniProt Q9NPC2)
class-name: n

compound: CC(=O)Nc1ccc(/C=N/Nc2ccc(C(=O)c3c(C)cc4ccccn34)cc2[N+](=O)[O-])cc1
test-system: Potassium channel subfamily K member 9 (Homo sapiens) (UniProt Q9NPC2)
class-name: n

compound: CCOC(=O)c1c(NC(=O)CNC2CCCc3ccccc32)sc(C(N)=O)c1C (stereo not drawn)
test-system: Potassium channel subfamily K member 9 (Homo sapiens) (UniProt Q9NPC2)
class-name: n

compound: COc1ccc(Cl)cc1NC(=O)CCN1CCOCC1
test-system: Potassium channel subfamily K member 9 (Homo sapiens) (UniProt Q9NPC2)
class-name: n

compound: CCN(C(=O)COc1ccc(C(=O)c2ccccc2)cc1)c1ccccc1
test-system: Potassium channel subfamily K member 9 (Homo sapiens) (UniProt Q9NPC2)
class-name: y

compound: Cc1cc2ccccn2c1C(=O)c1cccc(S(=O)(=O)N2CCOCC2)c1
test-system: Potassium channel subfamily K member 9 (Homo sapiens) (UniProt Q9NPC2)
class-name: n

compound: CC1(C)CC(=O)C(C2c3ccccc3S(=O)(=O)c3ccccc32)C(=O)C1
test-system: Potassium channel subfamily K member 9 (Homo sapiens) (UniProt Q9NPC2)
class-name: n

compound: CCCCn1ccnc1C(=O)c1cccc(S(=O)(=O)N2c3ccccc3CC2C)c1 (stereo not drawn)
test-system: Potassium channel subfamily K member 9 (Homo sapiens) (UniProt Q9NPC2)
class-name: y

compound: O=c1[nH]c(/C=C/c2cccc(Br)c2)nc2ccccc12
test-system: Potassium channel subfamily K member 9 (Homo sapiens) (UniProt Q9NPC2)
class-name: n

compound: Cc1cc2ccccn2c1C(=O)c1cccc(F)c1
test-system: Potassium channel subfamily K member 9 (Homo sapiens) (UniProt Q9NPC2)
class-name: y

compound: Cc1cc(C)c2[nH]c(=O)c(C(c3nnnn3Cc3ccc4c(c3)OCO4)N3CCCC3)cc2c1 (stereo not drawn)
test-system: Potassium channel subfamily K member 9 (Homo sapiens) (UniProt Q9NPC2)
class-name: n

compound: COc1ccccc1-c1n[nH]c2c1[C@H](C)CC[C@H]2C(C)C
test-system: Potassium channel subfamily K member 9 (Homo sapiens) (UniProt Q9NPC2)
class-name: y

compound: CC1Cc2ccccc2N1S(=O)(=O)c1ccc(Cl)nc1 (stereo not drawn)
test-system: Potassium channel subfamily K member 9 (Homo sapiens) (UniProt Q9NPC2)
class-name: n

compound: C=C(C)CSc1nc(N)c2c3c(sc2n1)CCC3
test-system: Potassium channel subfamily K member 9 (Homo sapiens) (UniProt Q9NPC2)
class-name: n

compound: CCC(C)c1ccc(NC(=S)N2CCCC2)cc1 (stereo not drawn)
test-system: Potassium channel subfamily K member 9 (Homo sapiens) (UniProt Q9NPC2)
class-name: n

compound: CC1Cc2ccccc2N1S(=O)(=O)c1c(N)n(C)c(=O)n(C)c1=O (stereo not drawn)
test-system: Potassium channel subfamily K member 9 (Homo sapiens) (UniProt Q9NPC2)
class-name: n

compound: CCN(C(=O)c1ccc(Br)cc1)c1ccccc1
test-system: Potassium channel subfamily K member 9 (Homo sapiens) (UniProt Q9NPC2)
class-name: n

compound: Cc1cc(=O)[nH]c(Nc2cccc(Br)c2)n1
test-system: Potassium channel subfamily K member 9 (Homo sapiens) (UniProt Q9NPC2)
class-name: n

compound: COc1ccccc1-c1nc(SC)n[nH]1
test-system: Potassium channel subfamily K member 9 (Homo sapiens) (UniProt Q9NPC2)
class-name: n

compound: CCC(C)NC(=O)c1nn(C)c(=O)c2ccccc12 (stereo not drawn)
test-system: Potassium channel subfamily K member 9 (Homo sapiens) (UniProt Q9NPC2)
class-name: n

compound: Fc1ccccc1C(c1nnnn1Cc1ccc2c(c1)OCO2)N1CCN(Cc2ccccc2)CC1 (stereo not drawn)
test-system: Potassium channel subfamily K member 9 (Homo sapiens) (UniProt Q9NPC2)
class-name: n
